Each entry below carries its recorded pKi.
# target.or.test.system: MAO-B (Homo sapiens)
pKi: −log10 of the molar value.
endpoint.name: pKi

1) COc1ccc(C(=O)/C=C/c2ccccc2F)cc1OC
7.35
2) COc1ccc(C(=O)/C=C/c2ccccc2Cl)c(OC)c1
7.49

---

# target.or.test.system: MAO-B (Homo sapiens, UniProt P27338)
# Construct: purchased Sigma-Aldrich
# Sequence (P27338 whole entry): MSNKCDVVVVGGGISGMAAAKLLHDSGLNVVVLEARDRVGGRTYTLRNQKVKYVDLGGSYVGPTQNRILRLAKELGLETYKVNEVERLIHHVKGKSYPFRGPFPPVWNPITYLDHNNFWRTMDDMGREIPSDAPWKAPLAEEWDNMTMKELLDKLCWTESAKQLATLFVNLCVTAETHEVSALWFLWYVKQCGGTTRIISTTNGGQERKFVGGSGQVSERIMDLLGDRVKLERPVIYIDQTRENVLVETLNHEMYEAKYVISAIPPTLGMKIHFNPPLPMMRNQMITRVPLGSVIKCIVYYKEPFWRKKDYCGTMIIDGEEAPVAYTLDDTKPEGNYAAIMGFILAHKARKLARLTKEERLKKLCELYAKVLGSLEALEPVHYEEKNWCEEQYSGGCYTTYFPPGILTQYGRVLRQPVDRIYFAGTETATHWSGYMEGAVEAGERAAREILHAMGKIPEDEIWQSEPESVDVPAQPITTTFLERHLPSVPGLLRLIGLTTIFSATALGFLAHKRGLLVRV
# experiment.summary: MAO-B inhibition assay (recombinant enzyme, benzylamine substrate)
# Assay type: biochemical
# test.conditions: IC50 MAO-A divided by IC50 MAO-B
Each entry below carries its recorded SI (selectivity index for MAO-B as compared to MAO-A).
endpoint.name: SI (selectivity index for MAO-B as compared to MAO-A)

1. COc1ccc(C(=O)/C=C/c2ccccc2F)c(OC)c1
11.90
2. COc1ccc(C(=O)/C=C/c2cccc(Br)c2)cc1OC
>35.94
3. COc1ccc(C(=O)/C=C/c2ccccc2Cl)cc1OC
>32.65
4. COc1ccc(C(=O)/C=C/c2cccc(Br)c2)c(OC)c1
86.49
5. COc1ccc(C(=O)/C=C/c2cccc(F)c2)cc1OC
>88.89
6. COc1ccc(C(=O)/C=C/c2ccccc2Br)cc1OC
>55.87

meta.source: paper PMC9503132
